# Tested on: SK-MEL-2 melanoma
# Run Description: NCI-60 one-dose screen, 48 h
# Measurement Setup: 10 µM unless noted
# Description: Growth inhibition of the SK-MEL-2 human tumor cell line is measured as a screen for anti-cancer activity. Cells are grown in 96 well plates and exposed to the test compound for 48 hours. Compounds are tested at a single concentration, which is 10^-5 M for most compounds. The reported endpoint is percent growth (GI% or GIPRCNT), where numbers from 0 - 100% represent growth inhibition, and numbers from -100% - 0 represent cell death. For example, a value of 40 represents 60% growth inhibition. […]
About 83,000 compounds went through this panel and 20% of them were active in at least one assay; those are over-represented in the sample as a whole. Calls of active or inactive are those of the source. Rule for the calls: active = growth percent below 10; inactive = the rest.
Return exactly one item of active, inactive

The examples below pair each entry with its known result.
Which outcome did this test record for the compound NC(=S)N/N=C(/CCN1CCCC1)CC(C1=C(O)C2=CCCCC2OC1=O)c1ccccc1 (stereo not given) ? inactive

Hi team, can someone confirm the assay call for `O=C(O)Cc1cccc(=O)c(O)c1C(=O)O` ? inactive

Could you please tell me the result logged for `COc1ccc(C(=O)NC(=O)Nc2cc3c(cc2F)/C(=C/c2[nH]c(C)c(CCC(=O)O)c2C)C(=O)N3)c(F)c1` in this assay? inactive

Please let me know the test result on file for `Brc1cccc(-c2cc(-c3ccc4nccnc4c3)[nH]n2)c1` . inactive

Status in this test for `CCCCCc1cc[n+](CC(=O)c2ccc([N+](=O)[O-])cc2)cc1` ? inactive

// outcome(item) with item = `O=[N+]([O-])c1cnc(Sc2ccncn2)s1` active

***
Check the results log: what was the call for `N=C(N)c1ccc(-c2ccc(-c3ccc4ccccc4c3)s2)cc1` ? inactive

Please share the test call associated with `N#Cc1c(-c2ccccc2)cc(-c2ccccc2)n(CC(=O)NO)c1=O` . inactive

Assay result, entry COc1cc(C2NN=C3c4ccccc4CCC32)cc(OC)c1OC (stereo not given) — outcome? inactive

Returns: the outcome recorded for `COc1ccc(Nc2[nH]n3c(=O)cc(-c4ccccc4)nc3c2C(=O)Nc2ccc(C)cc2)c(OC)c1` in this assay. inactive
